Tested on: pancreatic cancer cells (BxPC3)
Assay overview: In vitro potency (CellTiter-Glo, 96 h), BxPC3
Assay type: cell-based
Assay conditions: Homo sapiens, BXPC-3, 96 h, read-out: BxPC3 IC50, camptothecin free drug, 96 h
Please respond with reported IC50 for every item in the list.
Could you give me the number in µM? Just the number is fine.

Per the records, this compound ( CC[C@@]1(O)C(=O)OCc2c1cc1n(c2=O)Cc2c-1nc1cc3c(cc1c2CNCC(O)CN1CCOCC1)OCO3 (stereo partly shown) ) has IC50 equal to 0.106

Per the records, this compound ( CC[C@@]1(O)C(=O)OCc2c1cc1n(c2=O)Cc2c-1nc1cc3c(cc1c2CNCC(O)CO)OCO3 (stereo partly shown) ) has IC50 equal to 0.079

Per the records, this compound ( CC[C@@]1(O)C(=O)OCc2c1cc1n(c2=O)Cc2c-1nc1cc3c(cc1c2CNC1CCOCC1)OCO3 ) has IC50 equal to 0.063

Per the records, this compound ( CC[C@@]1(O)C(=O)OCc2c1cc1n(c2=O)Cc2c-1nc1cc3c(cc1c2CNC[C@@H](O)CO)OCO3 ) has IC50 equal to 0.108
